EC50 (read off the curve); PD-1/PD-L1 Blockade Bioassay, luciferase RAU reference
target: human PD-1 expressed on cells (human, UniProt Q15116 25-288); assay: cell-based or functional assay
Sequence (Q15116 25-288): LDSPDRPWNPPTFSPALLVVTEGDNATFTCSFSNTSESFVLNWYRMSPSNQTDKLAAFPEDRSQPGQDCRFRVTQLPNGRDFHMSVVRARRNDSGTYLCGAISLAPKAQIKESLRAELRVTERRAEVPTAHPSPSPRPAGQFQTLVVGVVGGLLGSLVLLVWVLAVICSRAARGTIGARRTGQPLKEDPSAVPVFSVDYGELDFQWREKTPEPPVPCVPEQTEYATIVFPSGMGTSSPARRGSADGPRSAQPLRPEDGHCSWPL
Readout name: EC50 (read off the curve); PD-1/PD-L1 Blockade Bioassay, luciferase RAU

>>> observed_result("T14-04 (antibody, V domains shown) VH: EVQLVESGGGLVQPGGSLRLSCAASGFVFSNYDMSWVRQAPGKGLEWVAYITIGGGTTYYPDTVKGRFTISRDNAKNSLYLQMNSLRAEDTAVYYCARWRYDPLFAMDYWGQGTTVTVSS VL: DIVLTQTPLSLSVTPGQPASISCRASESVDNYGISFMNWFLQKPGQPPQLLIYAASNQGSGVPDRFSGSGSGTDFTLKISRVEAEDVGVYYCQQSKEVPWTFGQGTKVEIK")
"~0.8 µg/mL"
>>> observed_result("2B3W-T14-05 (antibody, human IgG4, V domains shown, also called EU135-T14.05) VH: EVQLVESGGGLVQPGGSLRLSCAASGFVFSNYDMSWVRQAPGKGLEWVAYITIGGGTTYYPDTVKGRFTISRDNAKNSLYLQMNSLRAEDTAVYYCARWRYDPLFAMDYWGQGTTVTVSS VL: DIVLTQTPLSLSVTPGQPASISCRASESVTDYGISFMNWFLQKPGQPPQLLIYAASNQGSGVPDRFSGSGSGTDFTLKISRVEAEDVGVYYCQQSKEVPWTFGQGTKVEIK")
"~0.8 µg/mL"
>>> observed_result("T15-03 (antibody, V domains shown) VH: EVQLVESGGGLVKPGGSLRLSCAASGFTFSSFGMSWVRQAPGKGLELVATIYSNGDYTYYPDSVKGRFTVSRDNAKNSLYLQMNSLRAEDTAVYYCARYYGNYGGYFDYWGQGTLVTVSS VL: AIQMTQSPSSLSASVGDRVTITCKASQSVSNDVAWYQQKPGKAPKLLIYYAYMRYTGVPSRFSGSGSGTDFTLTISSLQPEDFATYYCHQDYSSPPTFGGGTKVEIK")
"~1 µg/mL"
>>> observed_result("7C5-T15-01 (antibody, human IgG4, V domains shown) VH: EVQLVESGGGLVKPGGSLRLSCAASGFTFSSFGMSWVRQAPGKGLELVATIYSNGDYTYYPDSVKGRFTVSRDNAKNSLYLQMNSLRAEDTAVYYCARYYGNYGGYFDYWGQGTLVTVSS VL: AIQMTQSPSSLSASVGDRVTITCKASQSVWDDLTWYQQKPGKAPKLLIYYASNRYTGVPSRFSGSGSGTDFTLTISSLQPEDFATYYCQQDYSSPPTFGGGTKVEIK")
"~0.7 µg/mL"

Data origin: patent US20250270320A1
